The reported measurements were obtained from ChEMBL document CHEMBL3286108.

# studySystem: 5-hydroxytryptamine receptor 6 (Homo sapiens, UniProt P50406)
# Sequence (P50406 whole entry): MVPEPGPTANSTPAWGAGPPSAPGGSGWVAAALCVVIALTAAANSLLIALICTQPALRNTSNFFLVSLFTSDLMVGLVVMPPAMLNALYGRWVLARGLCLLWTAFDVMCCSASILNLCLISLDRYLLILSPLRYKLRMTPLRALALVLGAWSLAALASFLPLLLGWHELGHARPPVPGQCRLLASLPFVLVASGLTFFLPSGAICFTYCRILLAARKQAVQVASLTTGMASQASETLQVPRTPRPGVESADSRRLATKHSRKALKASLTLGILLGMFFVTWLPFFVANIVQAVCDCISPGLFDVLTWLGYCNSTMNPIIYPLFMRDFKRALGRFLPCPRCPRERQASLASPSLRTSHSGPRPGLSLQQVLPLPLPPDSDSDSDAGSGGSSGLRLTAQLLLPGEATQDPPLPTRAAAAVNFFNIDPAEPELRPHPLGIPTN
# measurementDescription: biochemical
pKi: −log10 of the molar value.
measurementName: pKi

{"columns": ["entrySmiles", "studySystem", "pKi"],
 "data": [
  ["O=S(=O)(NCCCCN1CCC(c2noc3cc(F)ccc23)CC1)c1cc2ccccc2s1", "5-hydroxytryptamine receptor 6 (Homo sapiens, UniProt P50406)", 8.19],
  ["O=S(=O)(NCCCN1CCN(c2nsc3ccccc23)CC1)c1ccc(F)c(Cl)c1", "5-hydroxytryptamine receptor 6 (Homo sapiens, UniProt P50406)", 8.29],
  ["O=S(=O)(NCCCCN1CCN(c2nsc3ccccc23)CC1)c1cccs1", "5-hydroxytryptamine receptor 6 (Homo sapiens, UniProt P50406)", 7.38],
  ["O=S(=O)(NCCCCN1CCN(c2noc3ccccc23)CC1)c1ccc(OC(F)(F)F)cc1", "5-hydroxytryptamine receptor 6 (Homo sapiens, UniProt P50406)", 5.32],
  ["O=S(=O)(NCCCN1CCC(c2noc3cc(F)ccc23)CC1)c1cc2ccc(Cl)cc2s1", "5-hydroxytryptamine receptor 6 (Homo sapiens, UniProt P50406)", 7.36],
  ["O=S(=O)(NCCN1CCN(c2nsc3ccccc23)CC1)c1ccc2ccccc2c1", "5-hydroxytryptamine receptor 6 (Homo sapiens, UniProt P50406)", 6.17],
  ["O=S(=O)(NCCCN1CCN(c2nsc3ccccc23)CC1)c1cccs1", "5-hydroxytryptamine receptor 6 (Homo sapiens, UniProt P50406)", 6.85],
  ["O=S(=O)(NCCCN1CCN(c2noc3ccccc23)CC1)c1ccc(OC(F)(F)F)cc1", "5-hydroxytryptamine receptor 6 (Homo sapiens, UniProt P50406)", 5.66]
]}

a. Cc1cccc(S(=O)(=O)NCCCN2CCC(c3noc4cc(F)ccc34)CC2)c1
b. O=S(=O)(NCCCCN1CCN(c2noc3ccccc23)CC1)c1cnc2ccccn12
Problem: Given the entries a and b , determine which has the lower reported pKi. Identify your selection by its label. b
(b: 7.02, a: 7.89)

###

# studySystem: 5-hydroxytryptamine receptor 6 (Homo sapiens, UniProt P50406)
# measurementDescription: Antagonist activity at human recombinant 5-HT6 receptor expressed in CHO-K1 cells assessed as inhibition of serotonin-induced response treated 15 to 30 mins before agonist challenge by luminescence analysis
# Assay type: cell-based
measurementName: Kb (µM)

{"columns": ["entrySmiles", "observedResult"],
 "data": [
  ["O=S(=O)(NCCCN1CCC(c2noc3cc(F)ccc23)CC1)c1ccc(F)c(Cl)c1", 0.0074]
]}

I. O=S(=O)(NCCCN1CCC(c2noc3cc(F)ccc23)CC1)c1ccc(Cl)c(Cl)c1
II. O=S(=O)(NCCCCN1CCC(c2noc3cc(F)ccc23)CC1)c1cc2ccc(Cl)cc2s1
III. O=S(=O)(NCCCCN1CCC(c2noc3cc(F)ccc23)CC1)c1ccc2ccccc2c1
// smallest Kb at index 0, largest at the end Please respond with the labels ordered as the question requires. III, I, II
(III: 0.0038 µM, I: 0.012 µM, II: 0.021 µM)

###

# studySystem: Muscarinic acetylcholine receptor M1 (Homo sapiens) (UniProt P11229)
# Sequence (P11229 whole entry): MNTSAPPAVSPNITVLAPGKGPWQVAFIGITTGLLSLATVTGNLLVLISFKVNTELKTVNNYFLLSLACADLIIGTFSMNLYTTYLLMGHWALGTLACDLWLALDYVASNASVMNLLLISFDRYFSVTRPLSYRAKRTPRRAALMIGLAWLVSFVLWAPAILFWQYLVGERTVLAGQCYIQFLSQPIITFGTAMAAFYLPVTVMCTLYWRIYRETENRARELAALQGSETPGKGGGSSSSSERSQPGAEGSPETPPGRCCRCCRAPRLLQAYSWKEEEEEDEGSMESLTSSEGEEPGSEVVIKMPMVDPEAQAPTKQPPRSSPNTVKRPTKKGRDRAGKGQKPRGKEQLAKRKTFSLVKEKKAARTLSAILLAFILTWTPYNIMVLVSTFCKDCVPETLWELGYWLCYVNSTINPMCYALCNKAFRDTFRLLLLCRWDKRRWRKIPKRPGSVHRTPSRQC
# measurementDescription: Displacement of [3H]pirenzepine from human recombinant M1 receptor expressed in CHO cells at 1 uM
# Assay type: cell-based
measurementName: inhibition (%)

These recorded examples may help you get a feel for the data.
{"columns": ["entrySmiles", "studySystem", "inhibition [%]"],
 "data": [
  ["Cc1c(S(=O)(=O)NCCCCN2CCN(c3noc4ccccc34)CC2)sc2ccc(F)cc12", "Muscarinic acetylcholine receptor M1 (Homo sapiens) (UniProt P11229)", -4],
  ["O=S(=O)(NCCCCN1CCC(c2noc3cc(F)ccc23)CC1)c1ccc(OC(F)(F)F)cc1", "Muscarinic acetylcholine receptor M1 (Homo sapiens) (UniProt P11229)", -6],
  ["O=S(=O)(NCCCN1CCC(c2noc3cc(F)ccc23)CC1)c1cc2ccc(Cl)cc2s1", "Muscarinic acetylcholine receptor M1 (Homo sapiens) (UniProt P11229)", -8],
  ["O=S(=O)(NCCN1CCC(c2noc3cc(F)ccc23)CC1)c1cccc2ccccc12", "Muscarinic acetylcholine receptor M1 (Homo sapiens) (UniProt P11229)", -8],
  ["O=S(=O)(NCCCN1CCC(c2noc3cc(F)ccc23)CC1)c1cnc2ccccn12", "Muscarinic acetylcholine receptor M1 (Homo sapiens) (UniProt P11229)", -4],
  ["Cc1c(S(=O)(=O)NCCCN2CCC(c3noc4cc(F)ccc34)CC2)sc2ccc(F)cc12", "Muscarinic acetylcholine receptor M1 (Homo sapiens) (UniProt P11229)", 2],
  ["O=S(=O)(NCCCCN1CCC(c2noc3cc(F)ccc23)CC1)c1cc2ccccc2s1", "Muscarinic acetylcholine receptor M1 (Homo sapiens) (UniProt P11229)", 21]
]}

I. O=S(=O)(NCCCN1CCC(c2noc3cc(F)ccc23)CC1)c1csc2ccccc12
II. O=S(=O)(NCCCN1CCN(c2noc3ccccc23)CC1)c1cccs1
// returns I or II , whichever has the lower inhibition Kindly state the label of the option you pick. I
(I: -2%, II: 4%)
